- TARGET_OR_SYSTEM: SREBP-2 (Homo sapiens (Human))
- MEASUREMENT_PROTOCOL: In vitro assay SREBP-2: PathHunter U2OS SREBP-2 Nuclear Translocation Cell Line, U18666A-stimulated
- Assay type: cell-based
- CONDITION_INFO: PathHunter U2OS SREBP-2 nuclear translocation cells, U18666A 10 μM, overnight (16 hours)
REPORTED_PROPERTY: IC50

>  <COMPOUND>
C[C@H](Oc1cccnc1)[C@H]1CC[C@H]2[C@@H]3CC=C4C[C@@H](O)CC[C@]4(C)[C@H]3CC[C@]12C [Example 380]

>  <TARGET_OR_SYSTEM>
SREBP-2 (Homo sapiens (Human))

>  <IC50>
< 0.25 µM

$$$$

Please look up its IC50: C[C@H](CCC(=O)N(C)c1ccncc1)[C@H]1CC[C@H]2[C@@H]3CC=C4C[C@@H](O)CC[C@]4(C)[C@H]3CC[C@]12C [Example 639]
0.25 to 1 µM

----------
- TARGET_OR_SYSTEM: SREBP-2 (Homo sapiens (Human), UniProt Q12772)
- MEASUREMENT_PROTOCOL: In vitro assay SREBP-2: PathHunter U2OS SREBP-2 Nuclear Translocation Cell Line, U18666A-stimulated
- Assay type: cell-based
- CONDITION_INFO: PathHunter U2OS SREBP-2 nuclear translocation cells, U18666A 10 μM, overnight (16 hours)
pIC50: −log10 of the molar value.
Listed compounds paired with reported pIC50

>  <COMPOUND>
C[C@H](CCC(=O)N1CC2(C1)CC(C)(O)C2)[C@H]1CC[C@H]2[C@@H]3CC=C4C[C@@H](O)CC[C@]4(C)[C@H]3CC[C@]12C

>  <RESULT>
> 6.60

$$$$
>  <COMPOUND>
COC(=O)N1CCN(C(=O)CC[C@@H](C)[C@H]2CC[C@H]3[C@@H]4CC=C5C[C@@H](O)CC[C@]5(C)[C@H]4CC[C@]23C)CC1

>  <RESULT>
> 6.60

$$$$
>  <COMPOUND>
COC(=O)N1CCN(C(=O)CC[C@@H](C)[C@H]2CC[C@H]3[C@@H]4CC=C5C[C@@H](O)CC[C@]5(C)[C@H]4CC[C@]23C)C[C@@H]1C

>  <RESULT>
> 6.60

$$$$
>  <COMPOUND>
COc1cncc(N2CCN(C(=O)CC[C@@H](C)[C@H]3CC[C@H]4[C@@H]5CC=C6C[C@@H](O)CC[C@]6(C)[C@H]5CC[C@]34C)CC2)c1

>  <RESULT>
> 6.60

$$$$
>  <COMPOUND>
C[C@H](CCC(=O)N1CCN(c2cccnc2O)CC1)[C@H]1CC[C@H]2[C@@H]3CC=C4C[C@@H](O)CC[C@]4(C)[C@H]3CC[C@]12C

>  <RESULT>
> 6.60

$$$$

Value wanted: pIC50 (SREBP-2 (Homo sapiens (Human), UniProt Q12772)) of entry C[C@H](Oc1cccnc1CO)[C@H]1CC[C@H]2[C@@H]3CC=C4C[C@@H](O)CC[C@]4(C)[C@H]3CC[C@]12C [Example 270]
6.00 to 6.60

// query: C=CCN1C[C@H]2CON(C(=O)CC[C@@H](C)[C@H]3CC[C@H]4[C@@H]5CC=C6C[C@@H](O)CC[C@]6(C)[C@H]5CC[C@]34C)[C@H]2C1 [Example 45]
6.00 to 6.60

// query: C[C@H](CCC(=O)N1CCN(C(=O)N2CCCC2)C[C@@H]1C)[C@H]1CC[C@H]2[C@@H]3CC=C4C[C@@H](O)CC[C@]4(C)[C@H]3CC[C@]12C
> 6.60

// query: C[C@H](CCC(=O)N1CCN(c2ccncc2)C[C@@H]1C)[C@H]1CC[C@H]2[C@@H]3CC=C4C[C@@H](O)CC[C@]4(C)[C@H]3CC[C@]12C
> 6.60

// query: C#CC1(OC)CCN(C(=O)CC[C@@H](C)[C@H]2CC[C@H]3[C@@H]4CC=C5C[C@@H](O)CC[C@]5(C)[C@H]4CC[C@]23C)CC1
> 6.60

// query: C[C@H](CCc1cccc(C(F)(F)F)n1)[C@H]1CC[C@H]2[C@@H]3CC=C4C[C@@H](O)CC[C@]4(C)[C@H]3CC[C@]12C
6.00 to 6.60

----------
- TARGET_OR_SYSTEM: LXRβ (Homo sapiens (Human))
- MEASUREMENT_PROTOCOL: In vitro assay LXRβ: PathHunter NHR CHO cells, LXRβ / Steroid Receptor Co-activator Peptide enzyme fragment complementation
- Type: cell-based
- CONDITION_INFO: PathHunter NHR CHO cells, full-length human LXRβ and SRCP, chemiluminescent signal; read-out: LXRβ PPI
pEC50: −log10 of the molar value.
REPORTED_PROPERTY: pEC50

Please look up its pEC50: C[C@H](CCc1ncccc1C(F)(F)F)[C@H]1CC[C@H]2[C@@H]3CC=C4C[C@@H](O)CC[C@]4(C)[C@H]3CC[C@]12C
5.00 to 6.00

// query: C[C@@H]1CCN(C(=O)CC[C@@H](C)[C@H]2CC[C@H]3[C@@H]4CC=C5C[C@@H](O)CC[C@]5(C)[C@H]4CC[C@]23C)O1
6.00 to 6.60

// query: C[C@H](CCc1cncnc1)[C@H]1CC[C@H]2[C@@H]3CC=C4C[C@@H](O)CC[C@]4(C)[C@H]3CC[C@]12C
< 5.00

// query: CC(=O)N1CCN(C(=O)CC[C@@H](C)[C@H]2CC[C@H]3[C@@H]4CC=C5C[C@@H](O)CC[C@]5(C)[C@H]4CC[C@]23C)C[C@H]1C
< 5.00

// query: COc1cncnc1N1CCN(C(=O)CC[C@@H](C)[C@H]2CC[C@H]3[C@@H]4CC=C5C[C@@H](O)CC[C@]5(C)[C@H]4CC[C@]23C)[C@@H](C)C1
< 5.00

// query: COC(=O)N1CCN(C(=O)OC[C@@H](C)[C@H]2CC[C@H]3[C@@H]4CC=C5C[C@@H](O)CC[C@]5(C)[C@H]4CC[C@]23C)CC1
< 5.00

----------
- TARGET_OR_SYSTEM: UniProt:Q12772
- MEASUREMENT_PROTOCOL: In vitro assay SREBP-2: PathHunter U2OS SREBP-2 Nuclear Translocation Cell Line, U18666A-stimulated
- Type: cell-based
- CONDITION_INFO: PathHunter U2OS SREBP-2 nuclear translocation cells, U18666A 10 μM, overnight (16 hours)
Listed compounds paired with reported IC50

// worked examples, IC50 included
>  <COMPOUND>
C[C@H](CCC(=O)N(C)C)[C@H]1CC[C@H]2[C@@H]3CC=C4C[C@@](C)(O)CC[C@]4(C)[C@H]3CC[C@]12C

>  <RESULT>
1000 to 10000 nM

$$$$
>  <COMPOUND>
Cc1cnc(CC[C@@H](C)[C@H]2CC[C@H]3[C@@H]4CC=C5C[C@@H](O)CC[C@]5(C)[C@H]4CC[C@]23C)nc1

>  <RESULT>
< 250 nM

$$$$
>  <COMPOUND>
C[C@H](CCC(=O)N1CCC(S(=O)(=O)N(C)C)CC1)[C@H]1CC[C@H]2[C@@H]3CC=C4C[C@@H](O)CC[C@]4(C)[C@H]3CC[C@]12C [Example 413]

>  <RESULT>
250 to 1000 nM

$$$$

Please look up its IC50: C=C[C@@](O)(CC[C@@H](C)[C@H]1CC[C@H]2[C@@H]3CC=C4C[C@@H](O)CC[C@]4(C)[C@H]3CC[C@]12C)C(F)(F)F
< 250 nM

// query: C[C@H](CCC(=O)N1CCN(S(=O)(=O)N(C)C)CC1)[C@H]1CC[C@H]2[C@@H]3CC=C4C[C@@H](O)CC[C@]4(C)[C@H]3CC[C@]12C
< 250 nM

// query: CC(=O)NC1CCN(C(=O)CC[C@@H](C)[C@H]2CC[C@H]3[C@@H]4CC=C5C[C@@H](O)CC[C@]5(C)[C@H]4CC[C@]23C)CC1
< 250 nM

----------
- TARGET_OR_SYSTEM: LXRβ (Homo sapiens (Human), UniProt P55055)
- Sequence (P55055 whole entry, the tested form may be a part): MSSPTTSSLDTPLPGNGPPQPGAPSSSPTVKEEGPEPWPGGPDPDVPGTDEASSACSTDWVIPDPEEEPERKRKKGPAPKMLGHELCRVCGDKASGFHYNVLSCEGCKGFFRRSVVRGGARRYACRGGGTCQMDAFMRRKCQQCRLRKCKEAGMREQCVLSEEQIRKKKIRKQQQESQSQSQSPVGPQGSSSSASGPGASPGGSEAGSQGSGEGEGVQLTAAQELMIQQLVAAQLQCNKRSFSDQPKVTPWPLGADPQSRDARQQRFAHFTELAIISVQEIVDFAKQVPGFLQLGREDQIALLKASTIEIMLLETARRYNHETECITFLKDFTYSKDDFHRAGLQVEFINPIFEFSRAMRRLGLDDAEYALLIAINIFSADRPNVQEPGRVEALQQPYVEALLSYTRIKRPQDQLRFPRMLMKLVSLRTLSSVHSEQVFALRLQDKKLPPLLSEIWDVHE
- MEASUREMENT_PROTOCOL: In vitro assay LXRβ: PathHunter NHR CHO cells, LXRβ / Steroid Receptor Co-activator Peptide enzyme fragment complementation
- Format: cell-based
- CONDITION_INFO: PathHunter NHR CHO cells, full-length human LXRβ and SRCP, chemiluminescent signal; read-out: LXRβ PPI
REPORTED_PROPERTY: EC50

// worked examples, EC50 included
>  <COMPOUND>
C[C@H](CCC(=O)N1CCC(Oc2ccncc2)CC1)[C@H]1CC[C@H]2[C@@H]3CC=C4C[C@@H](O)CC[C@]4(C)[C@H]3CC[C@]12C

>  <EC50>
> 10 µM

$$$$
>  <COMPOUND>
C[C@H](CCC(=O)N1CCC2(CCOC2)CC1)[C@H]1CC[C@H]2[C@@H]3CC=C4C[C@@H](O)CC[C@]4(C)[C@H]3CC[C@]12C

>  <EC50>
> 10 µM

$$$$
>  <COMPOUND>
C[C@H](CCC(=O)N1CCN(C(=O)C2CCCC2)CC1)[C@H]1CC[C@H]2[C@@H]3CC=C4C[C@@H](O)CC[C@]4(C)[C@H]3CC[C@]12C

>  <EC50>
> 10 µM

$$$$
>  <COMPOUND>
CC(=O)N1CCN(C(=O)CC[C@@H](C)[C@H]2CC[C@H]3[C@@H]4CC=C5C[C@@H](O)CC[C@]5(C)[C@H]4CC[C@]23C)C[C@@H]1C [Example 277]

>  <EC50>
> 10 µM

$$$$

Then there is this compound:
Please look up its EC50: C#CC1(OC(C)C)CCN(C(=O)CC[C@@H](C)[C@H]2CC[C@H]3[C@@H]4CC=C5C[C@@H](O)CC[C@]5(C)[C@H]4CC[C@]23C)CC1
1 to 10 µM

Each recorded value in this set is attributed to patent US20230340011A1.
